Run conditions: in methyl acetate, 313.15 K
Experimental readout: solubility (mole fraction)
In your answer, state the number alone without any accompanying words.

solubility (mole fraction) lookup needed for CC(C)(N)C(=O)O , thanks.
0.000306

====

Run conditions: in isopropanol, 313.15 K
Experimental readout: solubility (mole fraction)

Please look up its solubility (mole fraction): CC(C)(N)C(=O)O
0.000396

====

Run conditions: in ethyl acetate, 318.15 K
Experimental readout: solubility (mole fraction)
Form field (numeric): enter value without unit.

What value of solubility (mole fraction) has been reported for the following molecule? CC(C)(N)C(=O)O
0.00111

====

Run conditions: in acetonitrile, 308.15 K
Experimental readout: solubility (mole fraction)

Could you tell me which solubility (mole fraction) is on file for CC(C)(N)C(=O)O ?
0.00024
